Data provenance is the OPERA property sets (Mansouri et al. 2018).

Measured logP, listed per entry.

Clc1ccc(Cl)c(-c2cc(Cl)cc(Cl)c2Cl)c1; 6.79

(Q) Quick one: logP of Cc1ccccc1NC(=O)C1CNCCN1 (stereo unspecified) ?
(A) 0.26

(Q) # repeat for O=C(O)Cc1ccc(S(=O)(=O)F)cc1
(A) 1.86

(Q) # repeat for O=[N+]([O-])c1cnc(N=C2OCCN2CCO)s1
(A) 0.43

(Q) # repeat for N#Cc1ccc(OC(=O)CNC(=O)c2ccccc2)cc1
(A) 2.11

(Q) # repeat for CN(C)c1cnnc(N(C)C)c1
(A) 0.84

(Q) # repeat for CCCCCCCCCCCC[n+]1cc(C)cc(C)c1.[I-]
(A) 1.91

(Q) # repeat for S=C=Nc1ccc(C=Cc2ccccc2)cc1
(A) 5.85

(Q) # repeat for CSc1nnc(C2CCCCO2)c(=O)n1N (stereo unspecified)
(A) 0.38

(Q) # repeat for CC(C)N1CCOC(c2cccc(Cl)c2)C1 (stereo unspecified)
(A) 3.27

(Q) # repeat for CCc1cnc(C=Cc2ccc([N+](=O)[O-])o2)nc1
(A) 1.55

----------
# note: exactly 1 is not below, so it is -1; use 1 for logP strictly under it

A selection of reference data follows.
O=C1CCC2CCCCC2C1 (centres undefined); -1
O=[N+]([O-])c1cccc(OC2OC(CO)C(O)C(O)C2O)c1 (centres undefined); 1
O=c1cn[nH]c2ccccc12; 1
CNC(=O)ON=CC(C)(C)[N+](=O)[O-]; 1
NNC(=O)NC1CCCCC1; 1

Could you now look at the following compound, please?
(Q) Hello, I'm reviewing records and need to know if logP of CCOc1cc(Cc2cnc(N)nc2N)cc(OCC)c1C(C)(C)O is below 1. Could you check?
(A) -1

----------
RECORDED ENDPOINT: logP
Number, no unit, nothing else.

CON(C)C(=O)Nc1cccc(F)c1; 1.68

Note: attention shifts to another entry.
(Q) Quick one: logP of O=S1(=O)NC(CCl)=Nc2cc(Cl)ccc21 ?
(A) 1.68

----------
Measured logP, listed per entry.
Number, no unit, nothing else.

CC1CCC(C)N1N=O (configuration not stated); 0.86
CCCC(C)n1nnc2ccccc21 (configuration not stated); 2.95
Cc1c[n+]([O-])c2ccccc2c1[N+](=O)[O-]; 1.06
Cc1cccc(N=NN(C)C)c1; 2.85
CNC(=N)NC(=N)Nc1ccc(Cl)cc1; 1.58

Note: attention shifts to another entry.
(Q) Quick one: logP of CCC(C)NC(=O)C=C(C)c1ccc(Cl)cc1 (configuration not stated) ?
(A) 3.92

----------
Measured logP, listed per entry.
Number, no unit, nothing else.

Completed entries (count: 2):
CCCCOc1cccc(N2C(N)=NC(N)=NC2(C)C)c1; 2.03
CCC(C)c1nnc(N)o1 (stereo not drawn); 0.62

Note: attention shifts to another entry.
(Q) Quick one: logP of CCCCN(SN(C)C(=O)ON=C(C)SC)C(C)=O ?
(A) 2.4

----------
RECORDED ENDPOINT: logP
Number, no unit, nothing else.

Completed entries (count: 3):
COC(=O)C(C#N)=NNc1ccccc1; 2.59
Cc1cc(C)cc(NC(=O)N(C)C)c1; 1.9
OC(C1CO1)C(O)C1CO1 (stereo unspecified); -1.29

(Q) Quick one: logP of Cc1cc(C)c(NC2=NCCN2)c(C)c1 ?
(A) 2.32

(Q) # repeat for O=C([O-])c1ccc2ccccc2c1.[Na+]
(A) -1.07

(Q) # repeat for CC(=O)C(C#N)=NNc1ccccc1Cl
(A) 4

(Q) # repeat for Cn1ncc2c([N+](=O)[O-])cc([N+](=O)[O-])cc21
(A) 1.63

(Q) # repeat for FC(F)(F)c1nc2c(Cl)ccc(Cl)c2[nH]1
(A) 2.87

(Q) # repeat for O=[N+]([O-])c1cc(Cl)c(N=C2NCCN2)c(Cl)c1
(A) 2.1

(Q) # repeat for CC(=O)OCC1=C(C(=O)O)N2C(=O)C(NC(=O)CSc3cc(Cl)ccc3Cl)C2SC1 (stereo unspecified)
(A) 1.66

(Q) # repeat for O=C1CN=C(c2c(F)cccc2F)c2ccc(Cl)cc2N1
(A) 2.88

(Q) # repeat for CC(C)c1nnc(N)o1
(A) 0.2

(Q) # repeat for O=CN(Cc1ccccc1)c1ccccc1
(A) 2.62

(Q) # repeat for CSc1cccc(N=NN(C)C)c1
(A) 2.98

----------
Label Y for high-side logP (at or above -0.1) and N for low-side logP (below it).

A selection of reference data follows.
O=C(c1ccncc1)c1ccc(Cl)cc1; Y
CC1(C)SC2C(NC(=O)C(O)c3ccccc3)C(=O)N2C1C(=O)O (stereo unspecified); Y
COc1ccc(OC2OC(CO)C(O)C(O)C2O)cc1 (stereo unspecified); N
CCOC(=O)C(C#N)=NNc1cc(Cl)c(Cl)c(Cl)c1; Y

(Q) Tell me whether logP is at least -0.1 here: CCC(C)C(=O)NN (stereo unspecified)
(A) N

----------
# note: exactly 2 is not below, so it is False; use True for logP strictly under it

(Q) Hello, I'm reviewing records and need to know if logP of CC12CCC(=O)C=C1CCC1C3CCC4(CCC(=O)O4)C3(C)CC3OC312 (stereo not given) is below 2. Could you check?
(A) True

(Q) # repeat for COc1cc(-n2nc(C)cc2OC)nc(OC)n1
(A) True

(Q) # repeat for CSC1=NCCN1c1ncc([N+](=O)[O-])s1
(A) True

(Q) # repeat for CC(=O)N(C)SN(C)C(=O)Oc1cccc2c1OC(C)(C)C2
(A) False

(Q) # repeat for ClC1=C(Cl)C(Cl)C(Cl)C(Cl)C1Cl (stereo not given)
(A) False

(Q) # repeat for O=C(CNC(=O)c1ccccc1)Oc1cccc(Cl)c1
(A) False

(Q) # repeat for CN(C)C(=O)c1ccsc1
(A) True

(Q) # repeat for O=[N+]([O-])c1ccc(/C=C/c2nnc[nH]2)o1
(A) True

----------
Measured logP, listed per entry.

Oc1ccnc2c(O)cccc12; 0.62

(Q) Quick one: logP of CCCCCCCCCCCCCCCC[n+]1ccc(C)c(C)c1.[I-] ?
(A) 3.16

(Q) # repeat for CN(C)/N=N/c1cc(C(N)=O)cc(C(N)=O)c1
(A) 0.22

(Q) # repeat for CCCCc1nnc(N)o1
(A) 0.65

(Q) # repeat for N#CCNc1ccccc1C(=O)O
(A) 1.8

(Q) # repeat for CCCCNc1ccccc1C(N)=O
(A) 2.33

----------
Label fulfilled for high-side logP (at or above 2) and not fulfilled for low-side logP (below it).

CCCNC(=NC#N)NC; not fulfilled
CC(=O)OCCN1CCS/C1=N/c1ncc([N+](=O)[O-])s1; not fulfilled
CCCCCNc1ccc(C(=O)OCCN(C)C)cc1; fulfilled
COc1nc(C)cc(-n2[nH]c(C)cc2=O)n1; not fulfilled
COc1cc(OC)c(CC(C)N)c(OC)c1 (stereo not drawn); not fulfilled

Could you now look at the following compound, please?
(Q) Tell me whether logP is at least 2 here: COc1cc(Cc2cnc(N)nc2N)cc(OC)c1Cl
(A) not fulfilled

----------
Measured logP, listed per entry.
Number, no unit, nothing else.

Completed entries (count: 4):
CNP(=O)(OC)Oc1ccc(SC)cc1 (stereo unspecified); 1.81
Clc1cccc(C2NCCS2)c1 (stereo unspecified); 2.04
COc1ccc(Cc2ccccc2C(N)=O)cc1; 1.63
OCC1OC(Oc2cccc(C(F)(F)F)c2)C(O)C(O)C1O (stereo unspecified); 0.49

(Q) Quick one: logP of CCC(C)NP(=O)(OC)SC (stereo unspecified) ?
(A) 0.95

(Q) # repeat for CCOn1c(=O)[nH]c(C)c(Br)c1=O
(A) 0.11

(Q) # repeat for O=C(O)CCN1C(=O)C=CC1=O
(A) 0.04

----------
Measured logP, listed per entry.

COc1cc(Cc2cnc(N)nc2N)cc(OC)c1C; 2.14
Clc1cc(Cl)cc(-c2c(Cl)c(Cl)cc(Cl)c2Cl)c1; 7.37
S=c1[nH]cnc2[nH]cnc12; 0.01
CN(C)C(=O)Cc1ccco1; 0.01
COc1cc(Cc2cnc(N)nc2N)ccc1SC; 1.92
CNP(=O)(OC)Oc1cccc(C(C)(C)C)c1 (configuration not stated); 2.65
CC12CCC(=O)C=C1C1(CC1)CC1C2CCC2(C)C1CCC21CCC(=O)O1 (configuration not stated); 3.15
Cc1nnc(C)s1; 0.03
C#CCN(C)N=Nc1nc[nH]c1C(N)=O; 0.33
C=CC(CC)OC(N)=O (configuration not stated); 1.09

(Q) Quick one: logP of CCOC(=O)CN(C(=O)CCl)c1ccccc1OC ?
(A) 1.78

(Q) # repeat for O=c1c2ccccc2ncn1O
(A) -0.45

(Q) # repeat for COC(=O)C(C#N)=NNc1ccc(SC(F)(F)F)cc1
(A) 4.3

(Q) # repeat for O=[N+]([O-])c1nccn1CCOc1ccccc1
(A) 1.89
